Molecular target: Integrin alpha2/beta1 (Homo sapiens, UniProt P05556+P17301)
Sequence (P05556 whole entry): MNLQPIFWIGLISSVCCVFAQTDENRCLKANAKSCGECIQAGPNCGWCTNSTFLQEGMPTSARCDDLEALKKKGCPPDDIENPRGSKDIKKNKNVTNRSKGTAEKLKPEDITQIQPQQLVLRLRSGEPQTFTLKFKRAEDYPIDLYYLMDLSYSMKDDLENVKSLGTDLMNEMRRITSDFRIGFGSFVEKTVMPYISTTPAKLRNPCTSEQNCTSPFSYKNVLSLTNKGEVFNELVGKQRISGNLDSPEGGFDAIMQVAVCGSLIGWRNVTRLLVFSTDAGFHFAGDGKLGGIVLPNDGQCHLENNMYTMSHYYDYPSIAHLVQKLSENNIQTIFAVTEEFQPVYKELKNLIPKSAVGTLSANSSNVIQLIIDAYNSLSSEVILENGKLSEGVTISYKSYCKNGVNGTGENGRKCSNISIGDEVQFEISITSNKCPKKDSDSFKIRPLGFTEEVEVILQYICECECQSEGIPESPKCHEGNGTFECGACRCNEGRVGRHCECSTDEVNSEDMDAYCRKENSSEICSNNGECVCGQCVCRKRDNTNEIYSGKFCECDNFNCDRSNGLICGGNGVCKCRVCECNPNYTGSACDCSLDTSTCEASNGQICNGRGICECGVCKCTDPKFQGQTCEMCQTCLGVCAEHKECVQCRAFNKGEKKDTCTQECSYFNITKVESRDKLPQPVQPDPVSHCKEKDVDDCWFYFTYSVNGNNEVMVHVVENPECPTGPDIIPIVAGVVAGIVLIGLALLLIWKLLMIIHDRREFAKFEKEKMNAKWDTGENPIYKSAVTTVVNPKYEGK
Sequence (P17301 whole entry): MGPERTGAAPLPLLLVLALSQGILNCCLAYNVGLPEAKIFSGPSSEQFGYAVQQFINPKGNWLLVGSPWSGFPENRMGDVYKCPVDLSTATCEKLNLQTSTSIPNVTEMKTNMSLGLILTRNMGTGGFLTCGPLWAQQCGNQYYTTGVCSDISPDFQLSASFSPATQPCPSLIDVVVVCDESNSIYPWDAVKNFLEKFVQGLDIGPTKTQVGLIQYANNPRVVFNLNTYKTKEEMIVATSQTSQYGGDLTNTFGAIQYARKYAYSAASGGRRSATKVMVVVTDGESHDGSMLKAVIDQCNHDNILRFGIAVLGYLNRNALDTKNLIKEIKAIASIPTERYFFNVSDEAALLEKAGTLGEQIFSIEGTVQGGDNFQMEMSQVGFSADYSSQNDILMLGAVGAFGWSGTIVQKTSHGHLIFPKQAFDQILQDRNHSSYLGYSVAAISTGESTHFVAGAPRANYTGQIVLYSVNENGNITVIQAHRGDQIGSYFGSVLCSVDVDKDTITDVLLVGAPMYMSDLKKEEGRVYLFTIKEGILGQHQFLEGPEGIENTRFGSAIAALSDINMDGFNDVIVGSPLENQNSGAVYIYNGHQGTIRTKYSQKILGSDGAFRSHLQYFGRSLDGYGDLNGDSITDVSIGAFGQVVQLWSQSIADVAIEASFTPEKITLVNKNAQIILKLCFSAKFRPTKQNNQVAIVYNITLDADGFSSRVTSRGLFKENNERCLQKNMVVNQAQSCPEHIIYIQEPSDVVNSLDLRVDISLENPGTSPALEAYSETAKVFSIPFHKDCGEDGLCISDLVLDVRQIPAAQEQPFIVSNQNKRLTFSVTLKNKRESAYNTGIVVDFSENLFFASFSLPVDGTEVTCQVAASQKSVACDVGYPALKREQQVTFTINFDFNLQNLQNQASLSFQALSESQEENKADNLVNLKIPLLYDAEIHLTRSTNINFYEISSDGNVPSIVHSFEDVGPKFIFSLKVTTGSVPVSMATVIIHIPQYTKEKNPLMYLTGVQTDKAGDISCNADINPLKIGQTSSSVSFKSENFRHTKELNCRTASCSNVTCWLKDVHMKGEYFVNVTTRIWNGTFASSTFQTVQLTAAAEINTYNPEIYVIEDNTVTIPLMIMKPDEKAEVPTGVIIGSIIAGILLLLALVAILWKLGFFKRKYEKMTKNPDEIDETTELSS
Assay: Binding affinity to alpha2beta1 integrin (unknown origin)
measured metric: EC50
The answer should read as a number with its unit following.

The molecule O=C(c1ccccc1)c1ccc(NS(=O)(=O)c2cccc(-c3ccc(F)cc3)c2)cc1 on Integrin alpha2/beta1 (Homo sapiens, UniProt P05556+P17301): EC50 was 2000 nM

====

Listed next: entries and their corresponding inhibition.
Biological target: Integrin alpha-1 (Homo sapiens) (UniProt P56199)
Sequence (P56199 whole entry): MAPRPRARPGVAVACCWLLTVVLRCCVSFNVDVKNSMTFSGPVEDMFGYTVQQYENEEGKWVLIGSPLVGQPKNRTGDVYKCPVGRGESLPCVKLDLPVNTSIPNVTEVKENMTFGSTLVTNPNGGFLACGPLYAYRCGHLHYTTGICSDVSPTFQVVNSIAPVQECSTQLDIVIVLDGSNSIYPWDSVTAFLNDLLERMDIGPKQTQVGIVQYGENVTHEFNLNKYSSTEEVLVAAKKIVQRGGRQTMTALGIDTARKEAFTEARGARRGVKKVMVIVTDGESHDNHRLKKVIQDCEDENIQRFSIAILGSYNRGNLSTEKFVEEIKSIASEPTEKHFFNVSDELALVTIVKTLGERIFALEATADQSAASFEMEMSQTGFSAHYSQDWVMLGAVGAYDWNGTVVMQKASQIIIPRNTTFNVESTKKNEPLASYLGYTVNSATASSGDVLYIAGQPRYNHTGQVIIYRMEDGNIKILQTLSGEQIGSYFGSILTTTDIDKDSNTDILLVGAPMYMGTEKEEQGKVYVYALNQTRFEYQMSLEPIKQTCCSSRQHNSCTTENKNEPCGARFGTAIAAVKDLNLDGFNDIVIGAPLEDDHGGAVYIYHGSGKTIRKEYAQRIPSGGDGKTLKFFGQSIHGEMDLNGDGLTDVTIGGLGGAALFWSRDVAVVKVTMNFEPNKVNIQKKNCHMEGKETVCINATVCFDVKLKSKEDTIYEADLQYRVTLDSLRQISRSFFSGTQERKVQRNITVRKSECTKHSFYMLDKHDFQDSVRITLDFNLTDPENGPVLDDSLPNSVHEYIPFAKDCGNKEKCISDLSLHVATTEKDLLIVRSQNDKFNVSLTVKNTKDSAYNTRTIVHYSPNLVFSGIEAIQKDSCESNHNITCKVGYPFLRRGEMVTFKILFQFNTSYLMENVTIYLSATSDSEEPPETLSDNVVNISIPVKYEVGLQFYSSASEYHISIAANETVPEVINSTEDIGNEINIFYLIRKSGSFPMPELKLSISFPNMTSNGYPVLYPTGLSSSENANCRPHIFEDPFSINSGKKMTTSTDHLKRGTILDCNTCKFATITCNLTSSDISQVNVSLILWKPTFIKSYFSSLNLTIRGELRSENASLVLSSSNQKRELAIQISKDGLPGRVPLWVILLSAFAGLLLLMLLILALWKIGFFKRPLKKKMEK
Test: Inhibition of human alpha1 integrin expressed in CHO cells binding to collagen I at 50 uM after 2 hrs by cell-adhesion-based WST-1 assay
Write the value in % as a bare number.

Recorded inhibition, per entry:
smiles_string=CN(c1ccc2c(c1)C(=O)c1ccccc1-2)S(=O)(=O)c1ccc(Cl)cc1Cl assayed_system="Integrin alpha-1 (Homo sapiens) (UniProt P56199)" measured_metric=inhibition measurement_unit=% measurement=0
smiles_string=O=C(c1ccccc1)c1cccc(NS(=O)(=O)c2ccc(Br)cc2)c1 assayed_system="Integrin alpha-1 (Homo sapiens) (UniProt P56199)" measured_metric=inhibition measurement_unit=% measurement=92
smiles_string=O=C(c1ccccc1)c1cccc(NS(=O)(=O)c2ccc(I)cc2)c1 assayed_system="Integrin alpha-1 (Homo sapiens) (UniProt P56199)" measured_metric=inhibition measurement_unit=% measurement=72
smiles_string=O=C(c1ccccc1)c1ccc(OS(=O)(=O)c2cc(Cl)cc(Cl)c2O)cc1 assayed_system="Integrin alpha-1 (Homo sapiens) (UniProt P56199)" measured_metric=inhibition measurement_unit=% measurement=86
smiles_string=CN(c1ccc(C(=O)c2ccccc2)cc1)S(=O)(=O)c1ccc(Cl)cc1Cl assayed_system="Integrin alpha-1 (Homo sapiens) (UniProt P56199)" measured_metric=inhibition measurement_unit=% measurement=0

inhibition reading for Cc1ccc(S(=O)(=O)Nc2ccc(C(=O)c3ccccc3)cc2)cc1 : 35

inhibition reading for Cc1ccc(S(=O)(=O)Nc2cccc(C(=O)c3ccccc3)c2)cc1 : 34

inhibition reading for O=C(c1ccccc1)c1ccc(NS(=O)(=O)c2ccc(Br)cc2)cc1 : 34

====

Target: Integrin alpha-1 (Homo sapiens) (UniProt P56199)
Assay: Inhibition of human alpha1 integrin expressed in CHO cells binding to collagen I at 50 uM after 2 hrs by cell-adhesion-based WST-1 assay
Outcome label depends on inhibition relative to 4%: at/above gives 1.0, below gives 0.0.

Recorded results for 4 molecules are shown here.
smiles_string=O=C(c1ccccc1)c1ccc(NS(=O)(=O)c2ccc(I)cc2)cc1 assayed_system="Integrin alpha-1 (Homo sapiens) (UniProt P56199)" class_assignment=1.0
smiles_string=O=C(c1ccccc1)c1cccc(NS(=O)(=O)c2ccc(Cl)cc2Cl)c1 assayed_system="Integrin alpha-1 (Homo sapiens) (UniProt P56199)" class_assignment=1.0
smiles_string=CN(c1cccc(C(=O)c2ccccc2)c1)S(=O)(=O)c1ccc(Cl)cc1Cl assayed_system="Integrin alpha-1 (Homo sapiens) (UniProt P56199)" class_assignment=1.0
smiles_string=O=S(=O)(Nc1ccc2c(c1)Cc1ccccc1-2)c1ccc(Cl)cc1Cl assayed_system="Integrin alpha-1 (Homo sapiens) (UniProt P56199)" class_assignment=1.0

Threshold query (inhibition >= 4%) on CC(=O)c1cccc(NS(=O)(=O)c2ccc(Cl)cc2Cl)c1
0.0

Threshold query (inhibition >= 4%) on O=C(c1ccccc1)c1ccc(NS(=O)(=O)c2ccc(Cl)cc2Cl)cc1
1.0

Threshold query (inhibition >= 4%) on O=C(c1ccccc1)c1ccc(OS(=O)(=O)c2ccc(Cl)cc2Cl)cc1
0.0

Threshold query (inhibition >= 4%) on O=C(c1ccccc1)c1ccc(NS(=O)(=O)c2ccccc2)cc1
0.0

Threshold query (inhibition >= 4%) on O=C1c2ccccc2-c2ccc(NS(=O)(=O)c3ccc(Cl)cc3Cl)cc21
1.0
